Values were extracted from PubChem BioAssay (NCI).

System: UACC-62 melanoma
assay remarks: NCI tumour cell line growth inhibition, 48 h
measurement kind: TGI (µM)

compound | modifier | value measured
Cn1c(=O)c2nc3sc4ccccc4c(=N)n3c2n(C)c1=O | > | 100
O=CC1C(=O)Nc2nc3ccccc3n2C1c1ccccc1 (stereo not given) | = | 31.9
COc1ccc2oc(=O)c(-c3nc4ccccc4s3)cc2c1 | > | 100
O=C1OC(/C=C/c2ccccc2)C(=O)C1=O (stereo not given) | > | 100
O=c1oc2ccc([N+](=O)[O-])cc2cc1-c1csc(-c2ccccc2)n1 | > | 100
C/C(=N\Nc1nc2ccccc2[nH]1)c1ccc2ccccc2n1 | = | 9.25
O=P1(NCCCl)OCCC(OO)N1CCCl (stereo not given) | = | 63.7
COc1cc2oc(=O)cc(C)c2c(OC)c1OC | > | 100
CC12CCC(C)(c3cc(O)c(O)cc31)c1cc(O)c(O)cc12 | = | 36.2
Cc1cc2c(C=O)[nH]nc2c(C#N)c1C | > | 100
COc1ccc([C@H]2C=C(c3cc(F)c(Cl)cc3Cl)N=c3s/c(=C\c4ccc(-c5ccc(Cl)cc5Cl)o4)c(=O)n32)cc1 | > | 100
Cc1nc2ccccc2n1Cc1ccc(NC(=S)NC2CCCCC2)cc1 | > | 89.7
COc1ccc(/C=C/c2cnnc3ccccc23)cc1OC | > | 10
COc1ccc(-c2nn(C(=O)c3cc(OC)c(OC)c(OC)c3)c3cc(N)ccc23)cc1 | = | 15.3
COc1ccccc1N1C(=O)/C(=C\c2ccccc2)SC1c1cc(OC)c(OC)c(OC)c1 (stereo not given) | > | 100
COc1cc(/C=C/C(=O)c2ccc(SC)cc2)cc(OC)c1OC | = | 13.5
O=c1c(-c2nc3ccccc3[nH]2)cc2ccccc2n1Cc1cn(Cc2ccc(F)cc2)nn1 | = | 50.7
CC(=O)Nc1ccc2cc3c(nc2n1)c1cccnc1n3S(=O)(=O)c1ccccc1 | > | 100
O=C1CSC2(CC(/C=C/c3ccccc3[N+](=O)[O-])=NN2c2cccc(S(=O)(=O)O)c2)N1c1nc2ccccc2s1 (stereo not given) | = | 29
CN(C)C=Nc1cccc2c1NSN2 | > | 100
OC(c1cc2c(Cl)cc(Cl)cc2c2cc(C(F)(F)F)ccc12)C1CCCCN1 (stereo not given) | = | 3.42
COc1cccc(-c2nn(C)c3sc(C(=O)NCCN4CCN(c5ccccc5F)CC4)cc23)c1 | = | 84.5
COc1ccc2nc3c(cc2c1)C(=O)CC(C(F)(F)F)C3 (stereo not given) | > | 100
C[C@@H](Br)[C@@H]1CC[C@H]2c3[nH]c4ccccc4c3CCN2C1 | = | 33.5
O=c1ccc2c(Cl)sc(Cl)c2[nH]1 | > | 100
O=C1N(c2ccccc2)N=C2c3ccncc3C3=NN(c4ccccc4)C(=O)C123 (stereo not given) | > | 57.1
O=C1OC(=O)C2C1C1(c3ccccc3)OC2(c2ccccc2)c2c(Br)c(Br)c(Br)c(Br)c21 (stereo not given) | > | 100
OC1/C(=C/c2ccccc2)CNC/C1=C\c1ccccc1 (stereo not given) | > | 100
COc1ccc(Nc2cnc3cc(N)ccc3n2)cc1OC | > | 100
COc1cccc(/C=N/[N-]C(N)=O)c1[O-].[Cu+2].c1ccncc1 | = | 41.1
CSc1c(C#N)c(=O)n(N)c2n[nH]c(C)c12 | > | 100
COC1=C2C[C@](OC)(C#CC=CC#CC2O)CC1(C)C (stereo not given in full) | > | 100
Nc1c(-c2ccc(-c3c(N)[n+]([O-])c4ccccc4[n+]3[O-])cc2)[n+]([O-])c2ccccc2[n+]1[O-] | = | 24.3
c1ccc2c(c1)-c1nc3ccccc3cc1C2N1CCOCC1 (stereo not given) | > | 100
CC(C)[Si](CC1=CCCCC12C(=O)N(COCC[Si](C)(C)C)c1ccccc12)(C(C)C)C(C)C (stereo not given) | > | 100
Cc1ccc(Sc2cc([N+](=O)[O-])cc(Sc3ccc(C)cc3)c2Sc2ccc(C)cc2)cc1 | > | 100
CC(=O)c1ccc(-c2ccc(C(C)=O)s2)s1 | > | 100
O=c1[nH]nc(-c2ccccc2)c2[nH]c3c(c12)CCCc1ccccc1-3 | = | 25.1
O=C(c1ccccc1)C(c1ccccc1)C1(O)C(=O)Nc2ccc(Br)cc21 (stereo not given) | = | 39.2
COc1cc(/C=C2\CCCC3=C2N=C2SC=NN2C3c2cc(OC)c(OC)c(OC)c2)cc(OC)c1OC (stereo not given) | = | 3.66

---

System: MCF7 breast
assay remarks: NCI tumour cell line growth inhibition, 48 h
Reported TGI values for the following molecules.

molecule | TGI
COc1ccc2c(C(=O)NCCCCCC(=O)O)cc3cc4c(cc3c2c1)OCO4 | > 100 µM
COC(=O)/C=C/c1cc(OC)c2c(c1)[C@@H](C(=O)OC)[C@H](c1ccc(OC)c(OC)c1)O2 | 14.2 µM
CC1=NN(c2cccc(S(=O)(=O)O)c2)C2(C1)SCC(=O)N2c1nc2ccccc2s1 (stereo not given) | > 100 µM
COC(=O)c1cc(OCc2cc(OCc3ccc(Br)cc3)cc(OCc3ccc(Br)cc3)c2)cc(OCc2cc(OCc3ccc(Br)cc3)cc(OCc3ccc(Br)cc3)c2)c1 | > 100 µM
COc1ccccc1NC(=O)C(=O)C(C#N)CC(C)(C)C=O (stereo not given) | > 100 µM
COC(=O)C1=C(C(=O)OC)C2CCC1CC2=O (stereo not given) | > 100 µM
NCCCCNCCCNC(=O)c1csc(-c2nc(CCN)sc2Cl)n1 | > 100 µM
COc1cc(CNC(=O)CCCCCCCCCCSC#N)ccc1O | 34.9 µM
CCOC(=O)C1=CN(Cc2ccccc2)C2ON=C(c3ccc(Cl)cc3)C2C1 (stereo not given) | > 64.6 µM
CN(CC(=O)O)Cc1c[nH]c2ccccc12 | > 100 µM

---

System: K-562 leukemia
assay remarks: NCI tumour cell line growth inhibition, 48 h
Reported TGI values for the following compounds.
measurement kind: TGI

compound | assay target | value measured
CC(=O)Nc1ccc(C(=O)NN2C(=O)C(Cl)C2/C=C/c2ccccc2)cc1 (stereo not given) | K-562 leukemia | > 100 µM
CCOC(=O)CCNC(=O)c1cc(C)cc2c1Oc1c(cc(C)cc1C(=O)NCCC(=O)OCC)S2 | K-562 leukemia | > 100 µM
CSc1nnc2n1-c1ccccc1SCC2 | K-562 leukemia | > 100 µM
COc1ccc(OC/C(N=Cc2cccnc2)=N/NC(=O)c2ccncc2)cc1 | K-562 leukemia | > 100 µM
Cc1cn(C2CC(/[N+]([O-])=N\Nc3ccc([N+](=O)[O-])cc3)C(CO)O2)c(=O)[nH]c1=O (stereo not given) | K-562 leukemia | > 100 µM

---

Test system: SR leukemia
assay remarks: NCI tumour cell line growth inhibition, 48 h

molecule | TGI
O=CN/C=C\c1cc(O)ccc1O | 21.3 µM
CCCCCCOc1ccc(/C=N/Nc2cc(C)nc3ccc(Br)cc23)cc1 | 1.85 µM
CC(C)N=C(NC#N)NS(=O)(=O)c1cnccc1NC1CCCCCCC1 | > 100 µM
O=C(c1ccccc1)C(c1ccccc1)C1(O)C(=O)Nc2ccc(Br)cc21 (stereo not given) | > 100 µM
Cc1nc(N(C)C)nc(-c2cccc(-c3ccn(CCN(C)C)n3)c2)c1C | > 20 µM
c1ccc2c[n+](Cc3ccnc4ccccc34)ccc2c1 | > 100 µM
C[C@H](OC(=O)/C=C/c1ccc(O)c(O)c1)[C@H](C)OC(=O)/C=C/c1ccc(O)c(O)c1 | > 100 µM
COC(=O)/C=C/[C@H]1[C@H](C)N1S(=O)(=O)c1ccc(C)cc1 (stereo not given in full) | > 100 µM
COc1cc(/C=C2\CCCC3=C2N=C2SC=NN2C3c2cc(OC)c(OC)c(OC)c2)cc(OC)c1OC (stereo not given) | 9.47 µM
Nc1nc(=O)n(C2CC(O)C(CO)O2)c2nc(-c3ccc(-c4ccccc4)cc3)cnc12 (stereo not given) | > 100 µM

---

System: HCT-15 colon
assay remarks: NCI tumour cell line growth inhibition, 48 h; in the data active = GI50 below about 0.43 µM; inactive = the rest
Labels: true (1) = active, false (0) = inactive

compound | label
COc1cccc(-c2nn(C)c3sc(C(=O)NCCN4CCN(c5ccccc5F)CC4)cc23)c1 | false (0)
CCCCCCOc1ccc(/C=N/Nc2cc(C)nc3ccc(Br)cc23)cc1 | false (0)
COc1ccc(/C=N/C2=C(C#N)C(c3ccccc3)c3ccc4ccccc4c3O2)cc1 (stereo not given) | false (0)
COc1ccc(-n2cc(-c3ccc(F)cc3)[nH]c2=O)cc1OC | false (0)
O=C(Nc1ccc(-n2cc(-c3ccncc3)c(-c3ccc(Cl)c(O)c3)n2)cc1)c1ccc(Cl)c(C(F)(F)F)c1 | false (0)
COc1ccc(-c2nn(C(=O)c3cc(OC)c(OC)c(OC)c3)c3cc(N)ccc23)cc1 | true (1)
Clc1ccc2c(NCCCNCc3ccc4c(c3)OCO4)ccnc2c1 | false (0)
O=C1COCCN1c1ccc(NCc2cn(Cc3ccc(F)cc3)c3ccccc23)cc1 | false (0)
COc1cc(Cl)c(C)cc1NC(=O)c1cc2ccccc2cc1O | false (0)
O=C(/C=C/c1ccco1)c1cccc(Nc2nc(Nc3ccccc3)nc(Nc3ccccc3)n2)c1 | false (0)
